Measured values drawn from patent US20240279345A1 for this set.

- studySystem: T1, recombinant human α5β1 integrin (human, UniProt P08648 42-995; P05556 21-728)
- T1 construct: also called rh-α5β1
- T1 sequence (P08648 42-995 limits assumed, form in doubt, chain 1 of 2): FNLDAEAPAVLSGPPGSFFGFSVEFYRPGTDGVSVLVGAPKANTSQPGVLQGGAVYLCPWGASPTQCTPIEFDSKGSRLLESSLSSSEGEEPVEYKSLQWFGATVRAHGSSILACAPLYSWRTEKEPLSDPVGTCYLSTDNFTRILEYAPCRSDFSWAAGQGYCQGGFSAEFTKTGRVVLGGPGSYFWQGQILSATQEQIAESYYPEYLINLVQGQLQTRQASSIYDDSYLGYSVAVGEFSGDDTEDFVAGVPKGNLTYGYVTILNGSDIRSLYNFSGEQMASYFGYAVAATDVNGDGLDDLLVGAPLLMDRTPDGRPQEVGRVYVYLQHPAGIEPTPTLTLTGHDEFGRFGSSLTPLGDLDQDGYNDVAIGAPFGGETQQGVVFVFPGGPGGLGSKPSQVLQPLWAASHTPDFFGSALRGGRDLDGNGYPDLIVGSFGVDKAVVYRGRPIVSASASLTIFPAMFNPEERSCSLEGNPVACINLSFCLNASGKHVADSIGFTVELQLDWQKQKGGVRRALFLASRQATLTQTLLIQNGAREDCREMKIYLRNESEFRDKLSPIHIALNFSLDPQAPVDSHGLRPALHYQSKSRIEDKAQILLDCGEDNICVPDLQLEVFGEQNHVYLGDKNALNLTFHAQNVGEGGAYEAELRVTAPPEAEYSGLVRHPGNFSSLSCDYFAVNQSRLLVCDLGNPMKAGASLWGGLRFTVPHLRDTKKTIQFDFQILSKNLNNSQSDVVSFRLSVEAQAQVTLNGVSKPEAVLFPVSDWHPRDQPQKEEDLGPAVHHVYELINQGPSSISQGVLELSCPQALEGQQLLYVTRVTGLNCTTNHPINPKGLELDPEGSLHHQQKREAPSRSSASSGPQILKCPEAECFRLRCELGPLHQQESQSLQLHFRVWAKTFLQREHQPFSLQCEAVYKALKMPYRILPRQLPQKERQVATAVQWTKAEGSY
- T1 sequence (P05556 21-728 limits assumed, form in doubt, chain 2 of 2): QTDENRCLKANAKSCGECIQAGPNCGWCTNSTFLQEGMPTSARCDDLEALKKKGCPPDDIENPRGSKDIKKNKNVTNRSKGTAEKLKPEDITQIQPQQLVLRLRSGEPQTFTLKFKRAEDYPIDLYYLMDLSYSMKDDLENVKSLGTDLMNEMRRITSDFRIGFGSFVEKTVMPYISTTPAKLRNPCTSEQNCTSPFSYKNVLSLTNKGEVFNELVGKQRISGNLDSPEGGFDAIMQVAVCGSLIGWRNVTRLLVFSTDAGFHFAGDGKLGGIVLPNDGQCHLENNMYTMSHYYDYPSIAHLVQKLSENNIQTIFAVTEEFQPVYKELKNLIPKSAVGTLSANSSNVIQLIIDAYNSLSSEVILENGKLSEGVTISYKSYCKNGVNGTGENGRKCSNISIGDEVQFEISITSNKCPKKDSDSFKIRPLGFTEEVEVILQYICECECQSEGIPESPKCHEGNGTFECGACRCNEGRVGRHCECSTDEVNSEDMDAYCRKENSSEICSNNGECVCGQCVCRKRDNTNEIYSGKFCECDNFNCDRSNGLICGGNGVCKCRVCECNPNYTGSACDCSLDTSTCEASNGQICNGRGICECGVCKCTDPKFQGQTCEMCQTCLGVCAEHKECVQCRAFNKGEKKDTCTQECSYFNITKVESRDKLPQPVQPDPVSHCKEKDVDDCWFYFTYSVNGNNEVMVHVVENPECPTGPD
- methodDescription: ELISA, coated integrin, supernatant 1:10
- Experimental: Plates were washed 3 times with Wash Buffer (1× Tris Buffered Saline containing 0.05% Tween20), blocked with 2% BSA in 1×TBS (made from 10× Thermo Scientific Blocker BSA (10×) in TBS; Thermo Fisher Scientific, Waltham, MA, cat. no. 37520) for 2 hours at room temperature (RT) then incubated with hybridoma supernatants diluted 1:10 with Standard Diluent (2% BSA, 1×TBS, 0.05% Tween20). […] Absorbance 450 nm was measured.
The following binders are shown together with reported Absorbance 450 nm values.
parameter: Absorbance 450 nm (A450)

>  <binder>
A-15B08 (antibody, V domains shown, mouse hybridoma supernatant in this assay) VH: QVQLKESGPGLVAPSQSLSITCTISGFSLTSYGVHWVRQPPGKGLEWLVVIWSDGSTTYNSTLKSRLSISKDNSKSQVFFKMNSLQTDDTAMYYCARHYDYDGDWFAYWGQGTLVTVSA VL: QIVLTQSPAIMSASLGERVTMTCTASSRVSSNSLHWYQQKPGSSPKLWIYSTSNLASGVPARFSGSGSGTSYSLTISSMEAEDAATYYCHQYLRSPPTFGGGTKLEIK

>  <endpointValue>
0.824

$$$$
>  <binder>
C-8G11 (antibody, V domains shown, mouse hybridoma supernatant) VH: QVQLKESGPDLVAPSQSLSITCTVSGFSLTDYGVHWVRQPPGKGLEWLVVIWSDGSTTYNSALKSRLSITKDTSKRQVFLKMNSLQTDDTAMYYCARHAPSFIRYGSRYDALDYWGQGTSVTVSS VL: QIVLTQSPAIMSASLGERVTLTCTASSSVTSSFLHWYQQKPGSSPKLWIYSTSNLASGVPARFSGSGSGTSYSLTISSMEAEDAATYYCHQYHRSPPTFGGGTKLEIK

>  <endpointValue>
0.805

$$$$
>  <binder>
A-4G02 (antibody, V domains shown, mouse hybridoma supernatant) VH: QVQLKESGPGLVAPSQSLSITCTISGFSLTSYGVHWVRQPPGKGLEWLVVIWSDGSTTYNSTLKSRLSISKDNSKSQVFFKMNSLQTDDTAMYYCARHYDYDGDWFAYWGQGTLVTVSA VL: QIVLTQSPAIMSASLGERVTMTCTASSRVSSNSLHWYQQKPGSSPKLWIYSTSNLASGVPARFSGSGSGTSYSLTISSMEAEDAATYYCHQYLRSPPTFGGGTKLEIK

>  <endpointValue>
0.687

$$$$
